tgt: Fatty acid synthase (Homo sapiens)
Sequence (P49327 whole entry, the tested form may be a part): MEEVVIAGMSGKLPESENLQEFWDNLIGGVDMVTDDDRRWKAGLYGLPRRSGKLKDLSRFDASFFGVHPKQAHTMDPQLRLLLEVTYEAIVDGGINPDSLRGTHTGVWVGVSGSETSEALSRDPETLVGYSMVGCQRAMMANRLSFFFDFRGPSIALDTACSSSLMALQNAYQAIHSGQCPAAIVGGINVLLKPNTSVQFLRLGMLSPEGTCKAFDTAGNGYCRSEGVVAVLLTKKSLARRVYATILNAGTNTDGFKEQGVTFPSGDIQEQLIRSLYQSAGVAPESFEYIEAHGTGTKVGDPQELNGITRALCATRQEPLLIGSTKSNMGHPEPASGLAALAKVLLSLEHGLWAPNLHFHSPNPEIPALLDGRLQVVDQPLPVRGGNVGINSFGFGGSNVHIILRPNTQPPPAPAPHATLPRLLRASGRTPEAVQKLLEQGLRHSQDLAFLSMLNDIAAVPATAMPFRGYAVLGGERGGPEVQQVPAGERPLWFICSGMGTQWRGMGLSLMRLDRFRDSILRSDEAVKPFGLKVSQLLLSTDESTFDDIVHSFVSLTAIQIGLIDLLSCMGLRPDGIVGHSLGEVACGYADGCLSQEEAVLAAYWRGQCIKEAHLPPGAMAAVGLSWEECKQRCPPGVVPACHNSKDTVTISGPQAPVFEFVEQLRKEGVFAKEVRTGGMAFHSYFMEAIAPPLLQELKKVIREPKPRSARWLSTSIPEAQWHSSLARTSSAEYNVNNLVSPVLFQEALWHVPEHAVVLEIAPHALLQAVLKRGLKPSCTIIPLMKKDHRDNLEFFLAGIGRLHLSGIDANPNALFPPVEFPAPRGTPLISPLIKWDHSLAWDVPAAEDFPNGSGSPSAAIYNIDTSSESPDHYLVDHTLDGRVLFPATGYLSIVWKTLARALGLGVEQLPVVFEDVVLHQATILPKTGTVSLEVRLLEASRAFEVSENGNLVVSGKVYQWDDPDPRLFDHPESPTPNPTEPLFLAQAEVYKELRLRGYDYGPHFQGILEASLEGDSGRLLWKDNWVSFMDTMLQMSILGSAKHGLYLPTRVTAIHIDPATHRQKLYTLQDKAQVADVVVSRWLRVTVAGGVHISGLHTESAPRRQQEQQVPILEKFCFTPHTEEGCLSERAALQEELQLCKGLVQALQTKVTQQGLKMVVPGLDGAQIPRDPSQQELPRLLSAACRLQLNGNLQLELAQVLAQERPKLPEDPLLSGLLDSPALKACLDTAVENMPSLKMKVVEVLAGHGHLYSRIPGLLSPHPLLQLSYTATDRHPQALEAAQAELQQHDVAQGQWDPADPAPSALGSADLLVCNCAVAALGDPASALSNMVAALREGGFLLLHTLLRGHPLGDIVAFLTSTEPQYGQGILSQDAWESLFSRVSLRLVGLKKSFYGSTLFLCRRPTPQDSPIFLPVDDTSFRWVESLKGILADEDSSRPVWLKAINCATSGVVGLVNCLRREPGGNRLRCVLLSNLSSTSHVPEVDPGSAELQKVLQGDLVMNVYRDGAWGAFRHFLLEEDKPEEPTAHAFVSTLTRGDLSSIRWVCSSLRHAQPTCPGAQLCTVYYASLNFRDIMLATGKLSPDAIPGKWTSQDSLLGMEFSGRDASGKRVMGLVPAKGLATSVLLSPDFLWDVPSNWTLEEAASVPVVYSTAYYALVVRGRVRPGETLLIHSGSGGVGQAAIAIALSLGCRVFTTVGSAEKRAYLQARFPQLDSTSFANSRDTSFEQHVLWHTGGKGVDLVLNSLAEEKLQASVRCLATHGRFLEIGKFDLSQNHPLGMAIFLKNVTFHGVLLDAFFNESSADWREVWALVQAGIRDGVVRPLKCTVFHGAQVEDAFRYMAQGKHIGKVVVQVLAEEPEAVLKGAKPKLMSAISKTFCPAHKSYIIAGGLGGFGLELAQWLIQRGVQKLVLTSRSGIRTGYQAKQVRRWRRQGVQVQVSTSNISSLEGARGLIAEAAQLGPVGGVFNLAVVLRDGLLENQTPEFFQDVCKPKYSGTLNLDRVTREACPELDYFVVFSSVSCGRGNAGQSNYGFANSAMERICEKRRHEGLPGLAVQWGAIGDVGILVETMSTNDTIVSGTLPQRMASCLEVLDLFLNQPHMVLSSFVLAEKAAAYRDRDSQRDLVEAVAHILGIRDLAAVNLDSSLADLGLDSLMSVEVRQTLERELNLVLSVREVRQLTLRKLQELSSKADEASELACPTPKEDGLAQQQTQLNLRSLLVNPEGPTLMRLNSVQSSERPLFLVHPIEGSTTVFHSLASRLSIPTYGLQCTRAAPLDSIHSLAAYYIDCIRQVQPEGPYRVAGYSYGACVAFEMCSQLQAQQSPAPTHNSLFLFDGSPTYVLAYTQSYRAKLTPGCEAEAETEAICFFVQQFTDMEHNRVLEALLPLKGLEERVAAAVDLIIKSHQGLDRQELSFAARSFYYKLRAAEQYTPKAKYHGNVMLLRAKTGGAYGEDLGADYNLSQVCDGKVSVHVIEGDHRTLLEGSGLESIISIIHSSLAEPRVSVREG
assay.details: FAS thioesterase domain inhibitors, dose response, biochemical, kinetic fluorescence intensity (AID 624326);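 note: rate of fluorescence rise from hydrolysis of a fluorogenic O-methyl fluorescein ester substrate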
Assay type: functional
The source made the active and inactive calls.
Listing of recorded IC50 by entry.

# annotated cases, reported IC50 shown
> print(dat)
                           smiles.structure  recorded.metric  reported.measurement
1  COc1cccc(-c2cnc3c(NC=O)cc(-c4ccc(S(C)(=O)=O)cc4)cn23)c1             IC50      9.95 µM (active)
2  O=S(=O)(c1ccc(-c2csc(-c3cccnc3)n2)cc1)N1CCCC1             IC50      1.62 µM (active)
3  COCCCNC(=O)C[C@H]1C[C@H](C(=O)N2CCOCC2)[C@@]2(CCC3CCCC3)c3[nH]c4cc(-c5ccco5)ccc4c3CCN2C1=O             IC50      9.08 µM (active)

Please look at CN(Cc1ccccc1)C(=O)COC(=O)c1cc([N+](=O)[O-])ccc1N1CCOCC1 and tell me its recorded IC50 on Fatty acid synthase (Homo sapiens).
0.617 µM (active)

====

Listing of recorded AC50 by entry.
tgt: FAD-linked sulfhydryl oxidase ALR (Homo sapiens)
Sequence (P55789 whole entry): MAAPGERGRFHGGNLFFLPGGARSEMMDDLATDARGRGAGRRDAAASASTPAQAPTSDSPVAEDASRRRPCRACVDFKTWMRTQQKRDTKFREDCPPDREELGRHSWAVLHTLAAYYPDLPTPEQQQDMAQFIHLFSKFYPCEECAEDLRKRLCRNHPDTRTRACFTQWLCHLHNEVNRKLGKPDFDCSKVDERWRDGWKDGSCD
assay.details: inhibitors of human ALR sulfhydryl oxidase, dose response, biochemical, H2O2 detection, luminescence, cherry-pick (AID 493248)
Active and inactive are the calls of the source.

> print(dat)
                                   compound                                       tgt  reported.measurement
1  CSCc1ccc(C(=O)N2CCCC(Nc3ccc(F)cc3)C2)o1 (stereo not drawn)  FAD-linked sulfhydryl oxidase ALR (Homo sapiens)      2.76 µM (active)
2  C/C(=N\Nc1ccc([N+](=O)[O-])cc1)c1ccc(O)cc1  FAD-linked sulfhydryl oxidase ALR (Homo sapiens)     0.136 µM (active)
3        CCN(CC)c1ccc(/C=N/NC(=O)CC(C)C)cc1  FAD-linked sulfhydryl oxidase ALR (Homo sapiens)      2.97 µM (active)
4  CC(=N\Nc1ccc(Cl)cc1)/C(=N/O)C(=O)Nc1ccccc1  FAD-linked sulfhydryl oxidase ALR (Homo sapiens)     0.104 µM (active)

Please look at O=S(=O)(c1ccc(-c2csc(-c3cccnc3)n2)cc1)N1CCCC1 and tell me its recorded AC50 on FAD-linked sulfhydryl oxidase ALR (Homo sapiens).
0.268 µM (active)

Please look at Cc1ccc(C2SCC(=O)N2c2ccccc2)cc1 (stereo not drawn) and tell me its recorded AC50 on FAD-linked sulfhydryl oxidase ALR (Homo sapiens).
< 0.005 µM (active)

Please look at CN(c1ccc(O)cc1)c1nc(-c2cccnc2)cs1 and tell me its recorded AC50 on FAD-linked sulfhydryl oxidase ALR (Homo sapiens).
3.84 µM (active)

Please look at O=C(CCc1c[nH]c2ccccc12)NCCc1ccc(O)cc1 and tell me its recorded AC50 on FAD-linked sulfhydryl oxidase ALR (Homo sapiens).
7.62 µM (active)

====

tgt: RNA-binding protein pos-1 (Caenorhabditis elegans)
Sequence (G5EF15 whole entry, the tested form may be a part): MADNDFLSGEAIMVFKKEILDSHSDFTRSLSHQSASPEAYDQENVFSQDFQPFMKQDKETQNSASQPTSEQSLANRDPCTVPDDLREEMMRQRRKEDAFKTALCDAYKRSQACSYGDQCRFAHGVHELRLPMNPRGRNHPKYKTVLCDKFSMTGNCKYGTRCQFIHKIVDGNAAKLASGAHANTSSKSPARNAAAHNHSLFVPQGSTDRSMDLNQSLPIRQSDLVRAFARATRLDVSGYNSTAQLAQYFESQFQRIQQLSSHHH
assay.details: inhibitors of POS-1/mex-3 RNA binding, dose response, biochemical, fluorescence polarization (AID 1964);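 note: purified POS-1 fused to maltose binding protein made in E. coli; potency of compounds blocking POS-1 binding to fluorescent RNA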
Active and inactive are the calls of the source.
recorded.metric: EC50

# annotated cases, reported EC50 shown
> print(dat)
                                   compound   reported.measurement
1  COc1cc(C2C(C#N)=C(N)Oc3[nH]nc(-c4cccnc4)c32)cc(Br)c1O (stereo not given)  > 300 µM (not active)
2  COC(=O)c1c(Cl)c2n3ccccc3c(C)c(-c3ccccc3)c-2c1C(=O)OC       47.5 µM (active)
3        Cc1ccc2[nH]c(O)c(N=Nc3ccccc3C)c2c1  > 300 µM (not active)

Determine its reported EC50: CCOC(=O)CSc1nc2ccc(Nc3nc(N4CCOCC4)nc(N4CCOCC4)n3)cc2s1
> 300 µM (not active)

Determine its reported EC50: O=C(N/N=C/c1cccn1-c1cccc(C(=O)O)c1)Nc1ccccc1
> 300 µM (not active)

Determine its reported EC50: CCOc1ccc2c(c1)/C(=C(\C(Cl)=C(Cl)Cl)[N+](=O)[O-])N2
68 µM (active)

Determine its reported EC50: COC(=O)c1sccc1NC(=O)c1ccc(C)s1
> 300 µM (not active)

Determine its reported EC50: CCOC(=O)Cn1c(=O)c(-c2cc(Br)ccc2N)nc2ccccc21
> 300 µM (inconclusive)

Determine its reported EC50: O=C(NNC(=O)c1ccccc1O)c1ccc(S(=O)(=O)Nc2ccccc2F)cc1
> 300 µM (not active)

Determine its reported EC50: Cc1ccc(N/C=C/C(=O)c2sc(-c3ccccc3)nc2C)cc1
46.4 µM (inconclusive)
